# ASSAY PROCEDURE: Parallel artificial membrane permeability assay for the blood–brain barrier (PAMPA-BBB)
# CONDITION CONTEXT: compound within AerExt donor solution; 37 °C, 4 h, PBS pH 7.4; n.q. = not quantified in the acceptor plate
ENDPOINT: AerExt log Pe

Note AerExt log Pe for the molecule shown: C=C(C)C(O)CCC(C)C1CCC2(C)C3CCC4C(C)(C)C(O)CCC45CC35CCC12C (stereo not drawn)
−5.60

Note AerExt log Pe for the molecule shown: `CC1=CCC[C@]2(C)CCC(=C(C)C)C[C@@H]12`
n.q.

Note AerExt log Pe for the molecule shown: CC1=C2CCC(C)C2CC(C(C)(C)O)CC1 (stereo not drawn)
n.q.

Note AerExt log Pe for the molecule shown: CC(C)=CCCC(C)(O)[C@H]1CC[C@]2(C)[C@@H]1[C@H](O)C[C@@H]1[C@@]3(C)CC[C@H](O)C(C)(C)[C@@H]3CC[C@]12C (stereo in doubt)
n.q.

Note AerExt log Pe for the molecule shown: COc1cc([C@@H]2OC[C@@H]3[C@H]2CO[C@H]3c2cc(OC)c(O[C@@H]3O[C@H](CO)[C@@H](O)[C@H](O)[C@H]3O)c(OC)c2)cc(OC)c1O[C@@H]1O[C@H](CO)[C@@H](O)[C@H](O)[C@H]1O [Syringaresinol diglucoside]
n.q.

Respectfully, I request AerExt log Pe for each entry included below.
1. COc1ccc(C=O)c(O)c1
2. COc1cc([C@H]2OC[C@H]3[C@@H]2CO[C@@H]3c2cc(OC)c(O[C@@H]3O[C@H](CO)[C@@H](O)[C@H](O)[C@H]3O)c(OC)c2)cc(OC)c1O [Syringaresinol glucoside]
3. CC(=O)O[C@@H]1[C@@H](OC(C)=O)[C@@H](O)[C@H](Oc2c(-c3ccc(O)cc3)oc3cc(O)cc(O)c3c2=O)O[C@H]1C
4. O=c1c(OC2OC(CO)C(O)C(O)C2O)c(-c2ccc(O)c(O)c2)oc2cc(O)cc(O)c12 (stereo not drawn)
5. COc1ccc([C@@H]2CC(=O)c3c(O)cc(O[C@@H]4O[C@H](CO[C@@H]5O[C@@H](C)[C@H](O)[C@@H](O)[C@H]5O)[C@@H](O)[C@H](O)[C@H]4O)cc3O2)cc1O

["n.q.", "n.q.", "n.q.", "n.q.", "n.q."]

Respectfully, I request AerExt log Pe for each entry included below.
1. C=CC1(C)CCC(=C(C)C)CC1C(=C)C (stereo not drawn)
2. CC1=CCC[C@@H](C)[C@]12CC[C@@H](C(C)(C)O)C2
3. COc1cc2ccc(=O)oc2c(O)c1OC
4. C[C@H]1CC[C@@H](C(C)(C)O)CC2=C1CC[C@@H]2C
5. Oc1ccc(O)c(O)c1

n.q.
n.q.
−4.82
n.q.
n.q.

* * *

Task for the reader: assign each of the following compounds its reported AerExt Te (%) ± SD 24 h.
# System: HBMEC cells
# ASSAY PROCEDURE: Blood–brain barrier transport study in HBMEC Transwell monolayer
# CONDITION CONTEXT: AerExt 40 µg mL^−1 apical; 24 h; n.q. = not quantified in the basolateral compartment
Give bare numbers, in %.

Respectfully, I request AerExt Te (%) ± SD 24 h for each entry included below.
1. O=C(O)c1cccc(O)c1O [2,3-dihydroxybenzoic acid]
2. COc1ccc(O)c(C=O)c1 [2-hydroxy-5-methoxybenzaldehyde]
3. c1ccc2c(c1)[nH]c1cnccc12 [Norharman]

[14.0, 11.0, 4.1]

Respectfully, I request AerExt Te (%) ± SD 24 h for each entry included below.
1. O=c1cc(-c2ccc(O)cc2)oc2cc(O)cc(O)c12 [Apigenin]
2. O=Cc1ccc(O)cc1 [4-hydroxybenzaldehyde]
3. COc1cc(/C=C/C(=O)O)ccc1O [Ferulic acid]
4. COc1cc2ccc(=O)oc2cc1O [7-hydroxy-6-methoxycoumarin]
5. C=C(C)[C@@H]1CC[C@@]2(C)CCC(=O)C(C)=C2C1 [α-cyperone]
6. C=C1CC[C@H]2O[C@]2(C)CC[C@@H]2[C@@H]1CC2(C)C [(–)-caryophyllene oxide]
7. C/C=C\c1cc(OC)c(OC)cc1OC [β-asarone]

1: 309.7; 2: 49.4; 3: 19.8; 4: 6.1; 5: 56.5; 6: 8.8; 7: 15.5

Note AerExt Te (%) ± SD 24 h for the compound shown: CC1(C)C[C@H](O)C[C@@]2(C)OC(=O)C=C12 [Loliolide]
12.4
